# STUDY SYSTEM: FKBP12 (Homo sapiens)
# Sequence (P62942 whole entry, species assumed): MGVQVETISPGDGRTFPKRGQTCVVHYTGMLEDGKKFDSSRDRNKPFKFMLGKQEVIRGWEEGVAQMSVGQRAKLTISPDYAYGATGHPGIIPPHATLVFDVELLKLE
pKi: −log10 of the molar value.
EXPERIMENTAL READOUT: pKi

>>> quantitative_readout("COC1CC2CCC(C)C(O)(O2)C(=O)C(=O)N2CCCCC2C(=O)OC(C(C)CC2CCC(O)C(OC)C2)CC(=O)C(C)/C=C(\\C)C(O)CC(=O)C(C)CC(C)/C=C/C=C/C=C/1C (stereo not shown)")
8.36

Reference for the values: patent US6713607B2
